- Test system: MS2 coat protein
- assay details: apparent KD of MS2 coat protein; designed switch direction (-1 OFF switch, 1 ON switch): -1; higher = weaker reporter binding
- assay setup: Eterna round: R95; input ligand: FMN 200 uM
Using apparent KD of MS2 coat protein as the sorting value, the categories are bottom end: < 30 nM; midrange: ≥ 30 nM and < 60 nM; top end: ≥ 60 nM

[[record]]
sequence_text = "UCAAGCUUUAAGCGUGUGAACAUGAGGAUCACCCAUGUAUUUUAGGUAAUAAGUUCAAUUAUGUAUUCUCGUCUUAU [JR_SWV3TOV1_Sub095] (puzzle: Sensor v3, turn-off variant 1)"
class_label = "midrange"

[[record]]
sequence_text = "GCGAAAGCAAACAGGUGAAACAUGAGGAUCACCCAUGUCCUCAUUUGCUCGUCUUAUAAGCUAUGCGAAAGCAUAGC [Sensor 3, v1 - 8] (puzzle: Sensor v3, turn-off variant 1)"
class_label = "top end"

[[record]]
sequence_text = "UGUACUAACACGAUAGUGUUAGUACUAUAAGCUUGUGUUACAUGAGGAUCACCCAUGUCCUCAUAAGCUCGUCUUGA [Mat - Sensor v3 - Turn-off var 2 - D93] (puzzle: Sensor v3, turn-off variant 2)"
class_label = "midrange"

[[record]]
sequence_text = "AGUAACUAUCACGAAAGUGAUAGUUACACAAGCAGUGGAACAUGAGGAUCACCCAUGUCCUCAUUUGCUCGUCUUAU [Sensor 3 - 27] (puzzle: Sensor v3, turn-off variant 2)"
class_label = "midrange"

[[record]]
sequence_text = "GAUUAUGCGAGCUUUAGGGACAUGAGGAUCACCCAUGUUCGUCUUAUUGAUCUAGGUACGCUGACGUACCUAAAUCU [Mod of one of jandersonlee's solutions] (puzzle: Sensor v3, turn-off variant 1)"
class_label = "bottom end"

[[record]]
sequence_text = "AAAACUAACACGAAAGUGUUAGUAAAAUAAGCUUGUGGUACAUGAGGAUCACCCAUGUCCUCAUAAGCUCGUCUUAU [Mat - Sensor v3 - Turn-off var 2 - D44] (puzzle: Sensor v3, turn-off variant 2)"
class_label = "bottom end"

[[record]]
sequence_text = "ACAACAAGCUUUUUGAACGUAGAACAUGAAGCUCUAGUCACAUGAGGAUCACCCAUGUCAGCCAGUUAGAUAGGUGA [JR_SV3TOV2_Sub065] (puzzle: Sensor v3, turn-off variant 2)"
class_label = "top end"

[[record]]
sequence_text = "GAUUAUGCGAGCUUUAGGGACAUGAGGAUCACCCAUGUUCGUCUUAUUGGUCUAGGUGCGCUAACAUACCUAAAUCU [JMF 51] (puzzle: Sensor v3, turn-off variant 1)"
class_label = "bottom end"

[[record]]
sequence_text = "UCAUGUUUAGAGGAUAUGAUUACUCUAGAGUGAUCAGAAGGCUAGACAUGAGGAUCACCCAUGUCACAACAUGA [Exclusion 6 - B - 16:c] (puzzle: Exclusion 6)"
class_label = "top end"


---

- Tested on: K4 kissing-loop RNA reporter;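 note: bound reporter read as fluorescence of individual clusters on recovered sequencing chips by microscopy, with normalized cluster intensities fitted with a binding model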
- assay details: apparent KD of K4 kissing-loop reporter; higher = weaker reporter binding
- assay setup: Eterna round: R107; input ligand: none
experimental endpoint: apparent KD of K4 kissing-loop reporter (µM)

[[record]]
sequence_text = "GGGCAUCAGGCUGAUACCAGUGAUAAAGGAUAAGAGACAGGGAGUGAUGUUCCCUUUACCCACCCUUGGCAGCAGUUUAAGUUUG [Exclusion Theophylline B GF 16]"
measured_target = "K4 kissing-loop RNA reporter"
experimental_endpoint = "apparent KD of K4 kissing-loop reporter"
display_unit = "µM"
measurement = 0.111

[[record]]
sequence_text = "AAGCAGUCAGGAUCGAAGAUCCUGCAAUACCGAGGACCGGUACGGCCGCCACUCGGAGUGAUGUUCCGAAGACUGCAAAAUAAAA [#SwitchBubble 7]"
measured_target = "K4 kissing-loop RNA reporter"
experimental_endpoint = "apparent KD of K4 kissing-loop reporter"
display_unit = "µM"
measurement = 0.243

[[record]]
sequence_text = "GCCGUACGCAUGGAUACCAGCAUGCAUAUUAGCUAGUGAUGUUAGCGCUAUGCGAUGCUAUGCCCUUGGCAGCCAUGCGUACGGC"
measured_target = "K4 kissing-loop RNA reporter"
experimental_endpoint = "apparent KD of K4 kissing-loop reporter"
display_unit = "µM"
measurement = 0.127

[[record]]
sequence_text = "GCAACAUUGGGAGGAUAUCAUUCUGAGUGAUGUUCAGGGUUCAGCUAACGAAAGUUAGUUGUACCAUGAGAAGGUCUAAUGUUGC [Omei KL FMN B SS A v6]"
measured_target = "K4 kissing-loop RNA reporter"
experimental_endpoint = "apparent KD of K4 kissing-loop reporter"
display_unit = "µM"
measurement = 1.18

[[record]]
sequence_text = "CAUACGCAUGGAGGAUAUGAGAAUUCUCAUGUCAUUUAAUAUUCUCAGUGAUGUUGAGGAUGUGGCUCAGAAGGCCAUGUGUAUG [Ex FMN B 21]"
measured_target = "K4 kissing-loop RNA reporter"
experimental_endpoint = "apparent KD of K4 kissing-loop reporter"
display_unit = "µM"
measurement = 0.423

[[record]]
sequence_text = "AAAUAGAUCAGUCACCCAGUGAUGUUGGAAGGAGCGUGCGAAAGCACAGGUAGGUCGCCAGAAUAAAAGUGGCUGAUCAAAAUAA"
measured_target = "K4 kissing-loop RNA reporter"
experimental_endpoint = "apparent KD of K4 kissing-loop reporter"
display_unit = "µM"
measurement = 0.519

[[record]]
sequence_text = "AAAAUAAAGGAGUGAUGUUCCAUAACGGAUACCAGCCACGAAAGUGGCCCUUGGCAGCUGUGCCAGUGGACGAAUAACGUCCACA [#OpenEnded 6 #StaticStem #K4Early]"
measured_target = "K4 kissing-loop RNA reporter"
experimental_endpoint = "apparent KD of K4 kissing-loop reporter"
display_unit = "µM"
measurement = 0.237

[[record]]
sequence_text = "GGUGCUGUCUGUGCCGCCCUCCUCGUCCCUCGAGGACCGGUACGGCCGCCACUCGAGUGAUGUUCGGGUAGCCAUCCCUGCUAGC [Bdazzled - #19 Exc. Tryptophan A]"
measured_target = "K4 kissing-loop RNA reporter"
experimental_endpoint = "apparent KD of K4 kissing-loop reporter"
display_unit = "µM"
measurement = 0.68

[[record]]
sequence_text = "AAGUUGAACUGAAGGAGCGAGAAAUAGAAUGUAAGAAUAUAUGCUAGUGAUGUUAGAAAUUCUCAGGUAGGUCGCAGUAAGAAUU [V1]"
measured_target = "K4 kissing-loop RNA reporter"
experimental_endpoint = "apparent KD of K4 kissing-loop reporter"
display_unit = "µM"
measurement = 0.442

[[record]]
sequence_text = "GUAUGUGGAAACACGUACUUGUAUCCUAGGAAGGAUAUGCGGAAACGCAGAAGGUCCACCGGCGAGUUUAUCCAGUGAUGUUGGA [Ex FMN A 10]"
measured_target = "K4 kissing-loop RNA reporter"
experimental_endpoint = "apparent KD of K4 kissing-loop reporter"
display_unit = "µM"
measurement = 0.274

[[record]]
sequence_text = "AUUUUGGUUGAGAGUGAUGUUCCUUGUGUUCGAGGACCGGUACGGCCGCCACUCGGGUAGAAAAUAAAAGAAAUGUUUGAUUUUU [BDazzled - #11 SS Tryptophan A]"
measured_target = "K4 kissing-loop RNA reporter"
experimental_endpoint = "apparent KD of K4 kissing-loop reporter"
display_unit = "µM"
measurement = 0.157

[[record]]
sequence_text = "CAUUCUAUAUGCAGUGAUGUUGCAACUGAUACCAGUAUCGAAAGAUACCCUUGGCAGCGGAAAACCGCUACGUAAUUUAAGAAUG [Ex Theophylline A K4 22]"
measured_target = "K4 kissing-loop RNA reporter"
experimental_endpoint = "apparent KD of K4 kissing-loop reporter"
display_unit = "µM"
measurement = 0.489


---

- Tested on: MS2 coat protein
- assay details: apparent KD of MS2 coat protein; higher = weaker reporter binding
- assay setup: Eterna round: R107; input ligand: tryptophan 2.4 mM
experimental endpoint: apparent KD of MS2 coat protein (nM)

[[record]]
sequence_text = "CGGCCCUCACUUGAGGAACACCCAAGUGAUACCAGCCUGGAAACAGGCCCUUGGCAGCACUAGGUCAUCAAAGAUGACCAAGCCG [TheoAX 29 #OpenEnded #AlternativeMS2]"
experimental_endpoint = "apparent KD of MS2 coat protein"
measurement = 23.1

[[record]]
sequence_text = "GGGUACAUCGCGGCCGCCACUUGUGUAAAUACAUGAGGAUCACCCAUGUCGAUGGAGACAUCGGGAAGGACCGGGUGAUGUACCG"
experimental_endpoint = "apparent KD of MS2 coat protein"
measurement = 650

[[record]]
sequence_text = "ACAUGAGGAUCACCCAUGUGGCGUCUUGAUACCAGACCCGCACUAGUCCCUUGGCAGCAACUACGUGAGGGUCGCCCAUGUGUAG [zxdullin]"
experimental_endpoint = "apparent KD of MS2 coat protein"
measurement = 34.4


Value source: the supplement of paper PMC9170038
